system: STF3A cells; assay: Viability (toxicity) of STF3A reporter cells, CCK-8; assay type: cell-based; details: Table 3; STF3A reporter cell line
assay_readout: pIC50
Conceptually, pIC50 converts a concentration in mol/L into minus its log10.

Reported pIC50 for CCc1ccc(-c2nc(CSCC(=O)NCCc3ccccc3)c(C)o2)cc1 [iCRT3, reference compound] : what is it? 4.13

Reported pIC50 for CC1CCCC(C)N1C(=O)CSc1nnc(COc2ccccc2)n1Cc1ccccc1 (stereo not shown) [GB1874C] : what is it? 4.11

Reported pIC50 for CCc1ccc(OCc2nnc(SC3CCCC3=O)n2C(C)c2ccccc2)cc1 (stereo not shown) [GB1874] : what is it? 4.19

Reported pIC50 for CCOc1ccc(C(=O)CSc2nnc(COc3ccccc3)n2Cc2ccccc2)cc1 [GB1874D] : what is it? 4.60

Reported pIC50 for CCOC(=O)C(C)(C)Sc1nnc(COc2ccccc2)n1Cc1ccccc1 [GB1874E] : what is it? 4.00

Reported pIC50 for CCc1ccc(OCc2nnc(SC3CCCCC3=O)n2C(C)c2ccccc2)cc1 (stereo not shown) [GB1874H] : what is it? 4.34

###

test system: CRC1850; assay: Viability of primary patient-derived colorectal cancer cell line; assay type: cell-based; settings: CRC1850, Liver Met
Kindly state EC50 for each of the entries shown.
Report the figure in µM without appending any unit label.

Reported EC50 for CCc1ccc(OCc2nnc(SC3CCCC3=O)n2C(C)c2ccccc2)cc1 (centres unmarked) : what is it? 37

Reported EC50 for Oc1nc(-c2ccc(C(F)(F)F)cc2)nc2c1CSCC2 [XAV939, reference compound] : what is it? 208

###

System: Wnt signalling (TOPFlash reporter, STF cells)
Assay: Wnt STF TOPFlash reporter dose response (Wnt3A-stimulated)
Assay type: cell-based
Settings: Table 1; STF reporter cells, 500 ng/mL Wnt3A, 24 hr; read-out: IC50 Wnt (STF)
Procedure: Wnt STF reporter cells (HEK 293 cells stably transfected with TOPFlash reporter) and STF3A reporter cells (STF cells with constitutive secretion of Wnt3A) were kind gifts from David Virshup (Duke-NUS Graduate Medical School, Singapore). HCT116, DLD-1, and SW480 cell lines were obtained from ATCC. […] The average signal from DMSO treated wells was calculated for each plate, and the signal from each treatment well was normalized against the average DMSO signal from the respective plate. […]
Kindly state IC50 for each of the entries shown.
Report the figure in µM without appending any unit label.

Reported IC50 for CCc1ccc(OCc2nnc(SC3CCCC3=O)n2C(C)c2ccccc2)cc1 (centres unmarked) : what is it? 11

Reported IC50 for CCc1ccc(-c2nc(CSCC(=O)NCCc3ccccc3)c(C)o2)cc1 [iCRT3, reference compound] : what is it? 27

###

test system: CRC1775; experiment: Viability of primary patient-derived colorectal cancer cell line; format: cell-based
assay_readout: EC50 (µM)
Report the figure in µM without appending any unit label.

Reported EC50 for CCc1ccc(OCc2nnc(SC3CCCC3=O)n2C(C)c2ccccc2)cc1 (centres unmarked) : what is it? 74

###

test system: CRC2367; assay: Viability of primary patient-derived colorectal cancer cell line; assay type: cell-based
assay_readout: pEC50
Conceptually, pEC50 converts a concentration in mol/L into minus its log10.

Reported pEC50 for CCc1ccc(OCc2nnc(SC3CCCC3=O)n2C(C)c2ccccc2)cc1 (centres unmarked) : what is it? 4.70

###

biological target: β-cat / GST-TCF4 N-terminal domain interaction (Homo sapiens); construct: His-tagged human β-cat (134-668); assay: SPR inhibition of β-cat-TCF4 interaction; conditions: SPR competition, 50 nM β-cat pre-incubated 15 min, n=2; read-out: IC50 inhibition of interaction between β-cat and TCF4
Sequence (P35222 134-668): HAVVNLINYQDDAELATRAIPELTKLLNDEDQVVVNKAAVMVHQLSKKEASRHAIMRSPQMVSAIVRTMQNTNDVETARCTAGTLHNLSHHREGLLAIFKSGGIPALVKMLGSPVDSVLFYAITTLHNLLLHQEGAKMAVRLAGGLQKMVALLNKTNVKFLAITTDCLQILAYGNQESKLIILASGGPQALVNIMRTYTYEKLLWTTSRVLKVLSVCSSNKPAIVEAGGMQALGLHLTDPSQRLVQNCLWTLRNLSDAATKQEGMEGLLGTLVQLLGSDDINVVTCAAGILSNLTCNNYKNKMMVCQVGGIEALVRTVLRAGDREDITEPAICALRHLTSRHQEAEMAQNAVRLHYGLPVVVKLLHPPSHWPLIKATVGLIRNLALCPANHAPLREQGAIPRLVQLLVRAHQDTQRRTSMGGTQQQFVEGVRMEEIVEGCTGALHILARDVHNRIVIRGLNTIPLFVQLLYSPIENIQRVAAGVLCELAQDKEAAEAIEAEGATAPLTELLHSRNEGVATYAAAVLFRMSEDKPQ
assay_readout: pIC50
Conceptually, pIC50 converts a concentration in mol/L into minus its log10.

State its pIC50 on β-cat / GST-TCF4 N-terminal domain interaction (Homo sapiens): CCc1ccc(OCc2nnc(SC3CCCC3=O)n2C(C)c2ccccc2)cc1 (stereo not shown) 4.60

###

tested on: CRC1707; test: Viability of primary patient-derived colorectal cancer cell line; format: cell-based
assay_readout: pEC50
Conceptually, pEC50 converts a concentration in mol/L into minus its log10.

Reported pEC50 for Oc1nc(-c2ccc(C(F)(F)F)cc2)nc2c1CSCC2 [XAV939, reference compound] : what is it? 3.87

Reported pEC50 for CCc1ccc(OCc2nnc(SC3CCCC3=O)n2C(C)c2ccccc2)cc1 (centres unmarked) : what is it? 4.72

###

system: Wnt signalling (TOPFlash reporter, STF3A cells); assay: Wnt STF3A TOPFlash reporter dose response (constitutive Wnt3A); assay type: cell-based; conditions: Table 3; STF3A reporter cell line; read-out: STF3A Inhibition IC50
Kindly state IC50 for each of the entries shown.
Report the figure in µM without appending any unit label.

Reported IC50 for CCc1ccc(OCc2nnc(SC(C)C(=O)C3C4CC5CC(C4)CC3C5)n2Cc2ccccc2)cc1 (stereo not shown) [GB1874G] : what is it? 6.7

Reported IC50 for CCc1ccc(-c2nc(CSCC(=O)NCCc3ccccc3)c(C)o2)cc1 [iCRT3, reference compound] : what is it? 42

Reported IC50 for CCc1ccc(OCc2nnc(SC3CCCCC3=O)n2C(C)c2ccccc2)cc1 (stereo not shown) [GB1874H] : what is it? 11

Reported IC50 for Cc1ccccc1OCc1nnc(SCCSc2nnc(COc3ccccc3C)n2Cc2ccccc2)n1Cc1ccccc1 [GB1874A] : what is it? 1.2

Reported IC50 for CCOC(=O)C(C)(C)Sc1nnc(COc2ccccc2)n1Cc1ccccc1 [GB1874E] : what is it? 16

Reported IC50 for CCc1ccc(OCc2nnc(SC3CCCC3=O)n2C(C)c2ccccc2)cc1 (stereo not shown) [GB1874] : what is it? 27

Reported IC50 for CCOc1ccc(C(=O)CSc2nnc(COc3ccccc3)n2Cc2ccccc2)cc1 [GB1874D] : what is it? 21

Reported IC50 for CC1CCCC(C)N1C(=O)CSc1nnc(COc2ccccc2)n1Cc1ccccc1 (stereo not shown) [GB1874C] : what is it? 46

Reported IC50 for Cc1ccc(OCc2nnc(SCC(=O)c3ccc(-c4ccccc4)cc3)n2Cc2ccco2)cc1 [GB1874F] : what is it? 10
